# protocol_summary: Inhibition of recombinant mouse GALK1 using ATP as substrate incubated for 1 hr and measured by Kinase-Glo assay
# experimental_context: read-out: IC50
pIC50: −log10 of the molar value.
experimental_readout: pIC50

* CC1=C(C(=O)Nc2ccccn2)C(c2ccccc2Cl)N=C(Nc2nc3ccccc3o2)N1 (stereo not drawn) | 4.96
* CCn1cc(CNC(=O)C2=C(C)NC(Nc3nc4ccc(F)c(N)c4o3)=N[C@@H]2c2ccc(C)cc2Cl)cn1 | 4.96
* CC1=C(C(=O)Nc2ccc(C(=O)O)nc2)C(c2ccccc2Cl)N=C(Nc2nc3ccccc3o2)N1 (stereo not drawn) | 5.01

* * *

# protocol_summary: Kinetic aqueous solubility of the compound
# Type: physicochemical
# experimental_context: buffer; read-out: Kinetic_solubility
solubility kinetic for assorted compounds

Give solubility kinetic for the following compound: CC1=C(C(=O)Nc2ncc(CO)s2)C(c2ccccc2Cl)N=C(Nc2nc3ccccc3o2)N1 (stereo not drawn)
< 1 µg/mL

Give solubility kinetic for the following compound: CC1=C(C(=O)Nc2ccnc(C(=O)O)c2)C(c2ccccc2Cl)N=C(Nc2nc3ccccc3o2)N1 (stereo not drawn)
> 74 µg/mL

Give solubility kinetic for the following compound: COC(=O)c1ccc(NC(=O)C2=C(C)NC(Nc3nc4ccccc4o3)=NC2c2ccccc2Cl)cn1 (stereo not drawn)
< 1 µg/mL

Give solubility kinetic for the following compound: CCn1cc(CNC(=O)C2=C(C)NC(Nc3nc4ccc(F)c(N)c4o3)=NC2c2ccc(C)cc2Cl)cn1 (racemic)
< 1 µg/mL

Give solubility kinetic for the following compound: "CCn1cc(CNC(=O)C2=C(C)NC(Nc3nc4ccc(F)c(N)c4o3)=N[C@@H]2c2ccc(C)cc2Cl)cn1"
< 1 µg/mL

Give solubility kinetic for the following compound: CC1=C(C(=O)Nc2cc(CO)ccn2)C(c2ccccc2Cl)N=C(Nc2nc3ccccc3o2)N1 (stereo not drawn)
< 1 µg/mL

Give solubility kinetic for the following compound: CC1=C(C(=O)Nc2ccc(F)cc2)C(c2ccccc2Cl)N=C(Nc2nc3ccccc3o2)N1 (stereo not drawn)
< 1 µg/mL

Give solubility kinetic for the following compound: CC1=C(C(=O)Nc2ccc(C#N)cc2)C(c2ccccc2Cl)N=C(Nc2nc3ccccc3o2)N1 (stereo not drawn)
< 1 µg/mL

Give solubility kinetic for the following compound: CC1=C(C(=O)Nc2cc(C(=O)O)ccn2)C(c2ccc(Cl)cc2Cl)N=C(Nc2nc3ccc(F)cc3o2)N1 (stereo not drawn)
< 1 µg/mL

Give solubility kinetic for the following compound: "CC1=C(C(=O)Nc2cc(C(=O)O)ccn2)[C@H](c2ccc(C)cc2Cl)N=C(Nc2nc3ccc(F)cc3o2)N1"
> 79 µg/mL

Give solubility kinetic for the following compound: CC1=C(C(=O)Nc2cc(C(=O)O)ccn2)C(c2ccc(C(=O)O)cc2Cl)N=C(Nc2nc3ccc(F)cc3o2)N1 (stereo not drawn)
> 83 µg/mL

Give solubility kinetic for the following compound: COC(=O)c1ccnc(NC(=O)C2=C(C)NC(Nc3nc4ccccc4o3)=NC2c2ccccc2Cl)c1 (stereo not drawn)
< 1 µg/mL

Give solubility kinetic for the following compound: CC1=C(C(=O)Nc2cc(CO)ccn2)C(c2ccccc2Cl)N=C(Nc2nc3ccc(F)cc3o2)N1 (stereo not drawn)
< 1 µg/mL

Give solubility kinetic for the following compound: CCn1cc(C(C)NC(=O)C2=C(C)NC(Nc3nc4cccc(N)c4o3)=NC2c2ccc(C)cc2Cl)cn1 (stereo not drawn)
< 1 µg/mL

Give solubility kinetic for the following compound: CC1=C(C(=O)NCc2cnn(Cc3ccccc3)c2)C(c2ccc(C)cc2Cl)N=C(Nc2nc3ccc(F)cc3o2)N1 (stereo not drawn)
< 1 µg/mL

Give solubility kinetic for the following compound: CC1=C(C(=O)Nc2ccccn2)C(c2ccccc2Cl)N=C(Nc2nc3cccc(N)c3o2)N1 (stereo not drawn)
< 1 µg/mL

Give solubility kinetic for the following compound: COc1ccc2oc(NC3=NC(c4ccccc4Cl)C(C(=O)Nc4cc(C(=O)O)ccn4)=C(C)N3)nc2c1 (stereo not drawn)
> 79 µg/mL

Give solubility kinetic for the following compound: "CC1=C(C(=O)Nc2cc(C(=O)O)ccn2)[C@@H](c2ccccc2Cl)N=C(Nc2nc3cccc(N)c3o2)N1"
> 76 µg/mL
